- assay target: MAP/microtubule affinity-regulating kinase 4 (Homo sapiens)
- Sequence (Q96L34 whole entry): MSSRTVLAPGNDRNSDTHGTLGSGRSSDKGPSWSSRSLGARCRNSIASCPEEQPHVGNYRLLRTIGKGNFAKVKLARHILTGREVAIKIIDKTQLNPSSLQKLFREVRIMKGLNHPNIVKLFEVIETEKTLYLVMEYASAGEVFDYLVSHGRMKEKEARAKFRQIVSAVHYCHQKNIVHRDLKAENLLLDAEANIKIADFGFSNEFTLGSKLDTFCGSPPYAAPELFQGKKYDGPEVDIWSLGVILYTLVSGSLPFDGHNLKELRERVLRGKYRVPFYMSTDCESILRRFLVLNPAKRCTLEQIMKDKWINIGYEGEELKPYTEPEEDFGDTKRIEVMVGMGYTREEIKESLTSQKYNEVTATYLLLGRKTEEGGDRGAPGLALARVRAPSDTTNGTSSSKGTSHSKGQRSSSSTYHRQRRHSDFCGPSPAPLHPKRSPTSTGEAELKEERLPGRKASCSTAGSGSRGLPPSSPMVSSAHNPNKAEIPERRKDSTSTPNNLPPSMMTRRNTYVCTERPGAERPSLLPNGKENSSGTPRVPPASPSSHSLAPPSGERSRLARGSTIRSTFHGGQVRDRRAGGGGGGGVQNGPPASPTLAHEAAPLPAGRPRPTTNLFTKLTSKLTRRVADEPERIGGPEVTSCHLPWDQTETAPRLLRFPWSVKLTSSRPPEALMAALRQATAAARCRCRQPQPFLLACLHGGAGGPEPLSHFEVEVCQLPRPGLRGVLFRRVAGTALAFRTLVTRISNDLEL
- test name: Inhibition of MARK4 (unknown origin) ATPase activity using ATP as substrate incubated for 1.5 hr in presence of MgCl2 by Biomol green reagent based ELISA
readout: IC50 (nM)
Quick reminder: number only, in nM, skip the unit.

Measured IC50 of NCCc1c[nH]c2ccc(O)cc12 [SEROTONIN] : 2990
